# target-desc: SlyA (Salmonella enterica)
# test-protocol: ITC with purified SlyA at […]°C; supported by 1H, […]-HSQC NMR
# Assay type: binding
Could you please report measured Kd for the items listed next?

INSERT INTO results (compound, observed_property, reported_result) VALUES
  ('O=C(O)c1ccc(O)cc1 [4-hydroxybenzoate]', 'Kd', '~100 µM');

Okay, next one:
Please fill in: Kd reported for O=C(O)c1cccc(O)c1O [2,3-dihydroxybenzoate] = ~57 µM

* * *

# target-desc: SlyA (Salmonella enterica, UniProt P40676)
# Sequence (P40676 whole entry): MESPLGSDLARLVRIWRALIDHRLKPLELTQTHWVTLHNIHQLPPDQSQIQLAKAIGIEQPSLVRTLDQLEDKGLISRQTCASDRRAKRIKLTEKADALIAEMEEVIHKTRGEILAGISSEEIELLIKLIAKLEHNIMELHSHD
# test-protocol: ITC with purified SlyA; supported by NMR
# Format: binding
observed-property: Kd (µM)
One number for each entry, in µM.

Assay SlyA (Salmonella enterica, UniProt P40676), sample O=C(O)c1ccccc1O [salicylate] , Kd read: 36
